Molecular target: T1, β-catenin (UniProt P35222 134-665, limits assumed, biotinylated in the SPR and plate assays)
T1 sequence (looked up): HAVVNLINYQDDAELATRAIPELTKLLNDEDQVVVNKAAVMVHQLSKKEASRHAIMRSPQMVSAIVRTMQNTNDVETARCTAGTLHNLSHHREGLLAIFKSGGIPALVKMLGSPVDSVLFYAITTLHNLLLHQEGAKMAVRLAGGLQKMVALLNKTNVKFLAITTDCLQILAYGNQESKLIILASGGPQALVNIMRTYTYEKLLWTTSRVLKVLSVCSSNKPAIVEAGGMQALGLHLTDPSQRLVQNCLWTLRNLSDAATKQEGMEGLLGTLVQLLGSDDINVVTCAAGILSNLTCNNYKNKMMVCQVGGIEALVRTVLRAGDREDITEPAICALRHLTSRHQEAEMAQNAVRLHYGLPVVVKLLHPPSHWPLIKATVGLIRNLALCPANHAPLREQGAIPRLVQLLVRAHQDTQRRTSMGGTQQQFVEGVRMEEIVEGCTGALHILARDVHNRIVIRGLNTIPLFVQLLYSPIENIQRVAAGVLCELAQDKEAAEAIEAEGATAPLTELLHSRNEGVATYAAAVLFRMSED
Experiment: cell-based or functional assay
Bridges are numbered along the chain shown (N, C = ends). Where no end group is shown, it is not given here. [ ]: non-standard residue; d: D form. The star is where a group is joined. Chg = N[C@H](C(=O)O)C1CCCCC1; Lauroyl = CCCCCCCCCCCC(=O)*; NMeA = CN[C@@H](C)C(=O)O

binder	Wnt Reporter EC50
KSRKWFLISFW-NH2 [SEQ ID NO: 93]	> 30 µM
Lauroyl-W[NMeA]QKILDEH[Chg]EDVWK-NH2 (lactam 11-15, 4-8 (inferred)) [SEQ ID NO: 465]	≤ 7.5 µM
H-MSRMWFLISFRG-OH [SEQ ID NO: 69]	> 30 µM
H-HWILISFWG-OH [SEQ ID NO: 126]	≤ 7.5 µM
KWGLISAWD (HELM PEPTIDE1{K.W.[O=C([C@@H](N[*:1])C1CCCCC1)[*:2]].L.I.S.A.W.D}$PEPTIDE1,PEPTIDE1,1:R3-9:R3$$$V2.0; SMILES CC[C@H](C)[C@@H]1NC(=O)[C@H](CC(C)C)NC(=O)[C@H](C2CCCCC2)NC(=O)[C@H](Cc2c[nH]c3ccccc23)NC(=O)[C@@H](N)CCCCNC(=O)C[C@@H](C(=O)O)NC(=O)[C@H](Cc2c[nH]c3ccccc23)NC(=O)[C@H](C)NC(=O)[C@H](CO)NC1=O) [SEQ ID NO: 204]	≤ 7.5 µM
KWFLIAFWE (HELM PEPTIDE1{[ac].K.W.F.L.I.A.F.W.E}$PEPTIDE1,PEPTIDE1,2:R3-10:R3$$$V2.0; SMILES CC[C@H](C)[C@@H]1NC(=O)[C@H](CC(C)C)NC(=O)[C@H](Cc2ccccc2)NC(=O)[C@H](Cc2c[nH]c3ccccc23)NC(=O)[C@@H](NC(C)=O)CCCCNC(=O)CC[C@@H](C(=O)O)NC(=O)[C@H](Cc2c[nH]c3ccccc23)NC(=O)[C@H](Cc2ccccc2)NC(=O)[C@H](C)NC1=O) [SEQ ID NO: 200]	≤ 7.5 µM
YSRMWFLISFW-NH2 [SEQ ID NO: 82]	> 30 µM
ESRMWFLISFW-NH2 [SEQ ID NO: 86]	> 30 µM
H-MWFLICFWG-OH [SEQ ID NO: 42]	≤ 7.5 µM
